system: HCT-15 colon; assay: NCI tumour cell line growth inhibition, 48 h; in the data active means GI50 below about 0.43 µM; inactive means the rest
Labels: active, inactive

MOLECULE	CLASSIFICATION
Fc1ccc(-c2c(-c3ccncc3)[nH]c3nccnc23)cc1	inactive
Cc1cc2c(cc1Cl)N1C(=O)NS(=O)(=O)N=C1NS2(=O)=O	inactive
N[C@@H](CSSC[C@H](N)C(=O)N1CCn2cc(-c3ccccc3)nc2[C@@H]1CC1CCCCC1)C(=O)N1CCn2cc(-c3ccccc3)nc2[C@@H]1CC1CCCCC1	inactive
O=C1NC(=O)C(c2c[nH]c3ccccc23)=C1c1ccccc1	inactive
Cc1cc(N)cc(C)c1-c1c(Br)cc(N)cc1Br	inactive
O=C(c1ccco1)c1c(C(F)(F)F)n([O-])c2ccc(F)cc2[n+]1=O	active
COc1cc(-c2nn(-c3cccc(NC(=O)CCN4CCN(C)CC4)c3)cc2-c2ccncc2)ccc1Cl	inactive
Cc1[nH]n(-c2cccc(Cl)c2)c(=O)c1/C=C1\C=c2ccccc2=CC1=O	inactive
COC1=CC2CCN3Cc4cc5c(cc4C(C1O)C23)OCC5 (centres undefined)	inactive
